Target: Angiotensin-converting enzyme (Oryctolagus cuniculus, UniProt P12822)
Sequence (P12822 whole entry): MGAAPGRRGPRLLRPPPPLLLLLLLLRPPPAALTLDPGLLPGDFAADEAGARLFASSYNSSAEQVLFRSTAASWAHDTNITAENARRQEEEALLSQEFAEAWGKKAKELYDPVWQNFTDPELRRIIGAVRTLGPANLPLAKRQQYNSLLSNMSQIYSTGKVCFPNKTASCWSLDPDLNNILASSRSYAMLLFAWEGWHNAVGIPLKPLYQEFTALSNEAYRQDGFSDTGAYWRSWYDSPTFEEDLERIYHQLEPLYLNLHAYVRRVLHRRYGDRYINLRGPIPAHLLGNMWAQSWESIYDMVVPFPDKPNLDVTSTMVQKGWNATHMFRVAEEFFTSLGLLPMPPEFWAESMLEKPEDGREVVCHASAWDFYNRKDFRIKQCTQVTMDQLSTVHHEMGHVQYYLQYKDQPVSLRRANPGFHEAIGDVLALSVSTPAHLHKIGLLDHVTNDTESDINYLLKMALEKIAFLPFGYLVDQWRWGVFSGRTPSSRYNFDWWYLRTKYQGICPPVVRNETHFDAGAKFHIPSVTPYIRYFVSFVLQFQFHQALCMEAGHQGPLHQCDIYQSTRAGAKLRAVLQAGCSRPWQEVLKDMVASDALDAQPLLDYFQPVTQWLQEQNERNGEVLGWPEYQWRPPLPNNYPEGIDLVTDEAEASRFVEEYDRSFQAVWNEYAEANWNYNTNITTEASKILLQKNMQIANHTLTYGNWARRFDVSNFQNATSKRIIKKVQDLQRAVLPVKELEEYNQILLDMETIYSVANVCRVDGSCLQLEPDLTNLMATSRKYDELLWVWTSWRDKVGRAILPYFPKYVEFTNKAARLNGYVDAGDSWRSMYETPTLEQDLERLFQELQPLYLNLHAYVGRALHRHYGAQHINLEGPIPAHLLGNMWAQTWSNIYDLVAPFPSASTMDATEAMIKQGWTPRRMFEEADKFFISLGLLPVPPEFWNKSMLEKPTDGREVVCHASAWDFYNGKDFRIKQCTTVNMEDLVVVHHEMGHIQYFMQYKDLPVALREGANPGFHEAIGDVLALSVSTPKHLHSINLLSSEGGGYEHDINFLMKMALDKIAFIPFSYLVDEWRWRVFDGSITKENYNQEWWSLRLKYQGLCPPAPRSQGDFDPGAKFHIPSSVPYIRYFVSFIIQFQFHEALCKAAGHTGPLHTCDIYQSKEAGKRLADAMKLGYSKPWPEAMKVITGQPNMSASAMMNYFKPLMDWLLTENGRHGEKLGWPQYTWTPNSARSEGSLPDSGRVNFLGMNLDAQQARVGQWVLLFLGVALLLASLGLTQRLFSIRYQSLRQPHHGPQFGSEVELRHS
pIC50: −log10 of the molar value.
Readout name: pIC50

Task: Lab note: need pIC50 with Angiotensin-converting enzyme (Oryctolagus cuniculus, UniProt P12822) for entry C[C@H](N)C(=O)CCCC[C@@H](C)C(=O)O , please look it up.
Result: < 4.00

###

Target: Leukotriene A-4 hydrolase (Homo sapiens)
Sequence (P09960 whole entry): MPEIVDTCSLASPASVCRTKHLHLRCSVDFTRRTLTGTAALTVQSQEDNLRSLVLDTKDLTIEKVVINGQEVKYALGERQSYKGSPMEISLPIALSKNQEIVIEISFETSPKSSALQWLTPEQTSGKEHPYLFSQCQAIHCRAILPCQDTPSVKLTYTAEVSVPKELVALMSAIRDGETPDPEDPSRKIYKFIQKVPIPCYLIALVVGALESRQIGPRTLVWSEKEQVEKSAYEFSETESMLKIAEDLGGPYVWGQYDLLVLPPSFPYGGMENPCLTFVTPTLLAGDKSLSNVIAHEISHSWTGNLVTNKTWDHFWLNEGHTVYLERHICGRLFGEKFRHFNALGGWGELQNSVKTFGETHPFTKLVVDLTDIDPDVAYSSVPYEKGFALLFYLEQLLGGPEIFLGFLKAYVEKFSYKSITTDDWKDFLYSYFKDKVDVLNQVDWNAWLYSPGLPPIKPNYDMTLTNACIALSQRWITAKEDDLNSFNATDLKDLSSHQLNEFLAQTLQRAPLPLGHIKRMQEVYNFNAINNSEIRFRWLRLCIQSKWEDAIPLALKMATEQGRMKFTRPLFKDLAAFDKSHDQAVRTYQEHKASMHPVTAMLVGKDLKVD
Assay: Inhibition of human recombinant LTA4 hydrolase assessed as LTB4 production after 30 mins by ELISA
Readout name: pIC50
pIC50 field: float, defined as -log10 of concentration (mol/L).

Task: Could you share which pIC50 value was measured for C[C@H](N)C(=O)CCCC[C@@H](C)C(=O)O ?
Result: 6.24

###

Biological target: Leukotriene A-4 hydrolase (Homo sapiens)
Assay: Inhibition of human recombinant LTA4 aminopeptidase activity spectrophotometric analysis
Readout name: IC50 (nM)
# value in nM; strip the unit string

Task: Request body: readout IC50, system Leukotriene A-4 hydrolase (Homo sapiens), query C[C@H](N)C(=O)CCCC[C@@H](C)C(=O)O . Return the value.
Result: 300

Data origin, for the record: ChEMBL document CHEMBL1158279
